Test system: basil 'Genovese'
ASSAY: Visual injury of basil after insecticide, fungicide, PGRs, safeners (Example 4)
EXPERIMENTAL CONTEXT: 28 DA-A, rates g ai/ha: chlropyrifos 3370, chlorothalonil 7900, paclobutrazol 9.7, mepiquat-chloride 37, Isoxadifen 16, Napthalic anhydride 527, + NIS 0.25 % v/v
# reported Phytotoxicity General; entries follow
State the answer as a number, implicitly in %.

Example results:
MOLECULE: C[N+]1(C)CCCCC1 [mepiquat-chloride]
TESTED SYSTEM: basil 'Genovese'
Phytotoxicity General (%): 0
--
MOLECULE: N#Cc1c(Cl)c(Cl)c(Cl)c(C#N)c1Cl
TESTED SYSTEM: basil 'Genovese'
Phytotoxicity General (%): 3
--
MOLECULE: CC(C)(C)[C@@H](O)[C@@H](Cc1ccc(Cl)cc1)n1cncn1 (racemic)
TESTED SYSTEM: basil 'Genovese'
Phytotoxicity General (%): 2
--
MOLECULE: CCOC(=O)C1=NOC(c2ccccc2)(c2ccccc2)C1
TESTED SYSTEM: basil 'Genovese'
Phytotoxicity General (%): 7
--
MOLECULE: O=C1OC(=O)c2cccc3cccc1c23 [napthalic anhydride]
TESTED SYSTEM: basil 'Genovese'
Phytotoxicity General (%): 3

Shift focus to the following entry.
// assay basil 'Genovese', entry CCOP(=S)(OCC)Oc1nc(Cl)c(Cl)cc1Cl , Phytotoxicity General value = 2
